Known melting point of a selection of compounds

// worked examples, melting point included
CC(C)(C)NC(=O)[C@@H]1C[C@@H]2CCCC[C@@H]2CN1C[C@@H](O)[C@H](Cc1ccccc1)NC(=O)[C@@H](NC(=O)COc1cccc(F)c1)C(C)(C)S(C)(=O)=O; 197 to 199 °C
CC(C)(C)NC(=O)[C@@H]1C[C@@H]2CCCC[C@@H]2CN1C[C@@H](O)[C@H](Cc1ccccc1)NC(=O)CC(C)(C)S(C)(=O)=O; 95 to 110 °C

Could you now look at the following compound, please?
// query For `CC(C)(C)NC(=O)[C@@H]1C[C@@H]2CCCC[C@@H]2CN1C[C@@H](O)[C@H](Cc1ccccc1)NC(=O)[C@@H](n1cc[nH]c1=O)C(C)(C)S(C)(=O)=O` , what is its reported melting point?
// result 228 to 230 °C

###

Known log10 IC50 of a selection of compounds
- test system: HIV-1 protease (Human immunodeficiency virus type 1 group M subtype B)
Reminder: these figures are log10 of reported IC50, in nM before transformation.

COC(=O)N[C@H](C(=O)N[C@@H](Cc1ccccc1)[C@H](O)CN1C[C@H]2CCCC[C@H]2C[C@H]1C(=O)NC(C)(C)C)C(C)(C)S(C)(=O)=O; 0.45

// query For `CC(C)(C)NC(=O)[C@@H]1C[C@@H]2CCCC[C@@H]2CN1C[C@@H](O)[C@H](Cc1ccccc1)NC(=O)[C@@H](NC(=O)COc1cccnn1)C(C)(C)S(C)(=O)=O` , what is its reported log10 IC50?
// result -0.30

// query For `CC(C)(C)NC(=O)[C@@H]1C[C@@H]2CCCC[C@@H]2CN1C[C@@H](O)[C@H](Cc1ccccc1)NC(=O)[C@@H](NC(=O)c1cccnc1)C(C)(C)S(C)(=O)=O` , what is its reported log10 IC50?
// result 0.36

// query For `CC(C)(C)NC(=O)[C@@H]1C[C@@H]2CCCC[C@@H]2CN1C[C@@H](O)[C@H](Cc1ccccc1)NC(=O)[C@@H](NC(=O)c1ccc(Cl)nc1)C(C)(C)S(C)(=O)=O` , what is its reported log10 IC50?
// result 0.00

// query For `CC(C)(C)NC(=O)[C@@H]1C[C@@H]2CCCC[C@@H]2CN1C[C@@H](O)[C@H](Cc1ccccc1)NC(=O)[C@@H](NCc1ccccc1)C(C)(C)S(C)(=O)=O` , what is its reported log10 IC50?
// result 0.88

// query For `CC(C)(C)NC(=O)[C@@H]1C[C@@H]2CCCC[C@@H]2CN1C[C@@H](O)[C@H](Cc1ccccc1)NC(=O)[C@@H](NC(=O)COc1ccccn1)C(C)(C)S(C)(=O)=O` , what is its reported log10 IC50?
// result 0.08

###

- test system: HIV-1 protease (Human immunodeficiency virus type 1 group M subtype B)
Known pIC50 of a selection of molecules
By convention, pIC50 is the negative base-10 log of a molar concentration.

// worked examples, pIC50 included
CC(C)(C)NC(=O)[C@@H]1C[C@@H]2CCCC[C@@H]2CN1C[C@@H](O)[C@H](Cc1ccccc1)NC(=O)[C@@H](NC(=O)CNc1ccccc1)C(C)(C)S(C)(=O)=O [Example 93]; 9.30
CC(C)(C)NC(=O)[C@@H]1C[C@@H]2CCCC[C@@H]2CN1C[C@@H](O)[C@H](Cc1ccccc1)NC(=O)CC(C)(C)S(C)(=O)=O [Example 95]; 7.21

// query Look up pIC50 with HIV-1 protease (Human immunodeficiency virus type 1 group M subtype B) for this molecule: CC(C)(C)NC(=O)[C@@H]1C[C@@H]2CCCC[C@@H]2CN1C[C@@H](O)[C@H](Cc1ccccc1)NC(=O)[C@@H](NC(=O)NCc1ccccc1)C(C)(C)S(C)(=O)=O [Example 168]
// result 9.30

// query Look up pIC50 with HIV-1 protease (Human immunodeficiency virus type 1 group M subtype B) for this molecule: CC(C)(C)NC(=O)[C@@H]1C[C@@H]2CCCC[C@@H]2CN1C[C@@H](O)[C@H](Cc1ccccc1)NC(=O)[C@@H](NC(=O)c1ccoc1)C(C)(C)S(C)(=O)=O [Example 28]
// result 9.00

// query Look up pIC50 with HIV-1 protease (Human immunodeficiency virus type 1 group M subtype B) for this molecule: Cc1csc(N[C@H](C(=O)N[C@@H](Cc2ccccc2)[C@H](O)CN2C[C@H]3CCCC[C@H]3C[C@H]2C(=O)NC(C)(C)C)C(C)(C)S(C)(=O)=O)n1 [Example 138]
// result 8.11
